This collection of values is drawn from patent US10428083B2.

tested-target: human adenosine A2b receptor (Homo sapiens (Human))
assay-comment: Cellular in vitro reporter gene test for A2b receptor activity (CHO-K1, CRE-luciferase, NECA stimulation)
Type: cell-based
experimental-conditions: recombinant CHO-K1 cell line, CRE-luciferase reporter, antagonism of EC50 concentration of NECA; in some cases means of several determinations, rounded to two significant figures; read-out: A2b receptor IC50
observation-type: pIC50
In textbook form, pIC50 equals minus log to base ten of the concentration in mol/L.

>>> measured("CCn1c(=O)c2c(C)c(CN3CCNC3=O)sc2n(CC(C)OC)c1=O (single isomer, unassigned; enantiomer 1) [Example 63]")
7.41
>>> measured("CCn1c(=O)c2c(C)c(CN3CCNC3=O)sc2n(CCS(C)(=O)=O)c1=O")
6.43
>>> measured("COCCn1c(=O)n(CC(C)(C)C)c(=O)c2c(C)c(Cn3nc[nH]c3=O)sc21")
6.92
>>> measured("COCCn1c(=O)c2c(C)c(CN3CCNC(=O)C3=O)sc2n(CC2CCO2)c1=O (single isomer, unassigned) [Example 401]")
6.18
>>> measured("Cc1c(CN2CCNC2=O)sc2c1c(=O)n(CC(F)(F)F)c(=O)n2C")
8.12
>>> measured("COCCn1c(=O)n(CC(C)(C)F)c(=O)c2c(C)c(CN3CCNC3=O)sc21")
7.44

Dear colleague, I am looking for the recorded pIC50 of the following compound: `CCOCCn1c(=O)c2c(C)c(CN3CCNC3=S)sc2n(CCC(F)(F)F)c1=O`
8.19

Dear colleague, I am looking for the recorded pIC50 of the following compound: Cc1c(Cn2cc[nH]c2=O)sc2c1c(=O)n(CC(F)(F)F)c(=O)n2CC1CCCO1 (single isomer, unassigned) [Example 342]
7.89

Dear colleague, I am looking for the recorded pIC50 of the following compound: Cc1c(CN2CCNC2=NC#N)sc2c1c(=O)n(C(C)C)c(=O)n2CC1CCO1 (single isomer, unassigned) [Example 266]
7.12

Dear colleague, I am looking for the recorded pIC50 of the following compound: `CCn1c(=O)c2c(C)c(CN3CCNC3=O)sc2n(CCOC)c1=O`
8.29

Dear colleague, I am looking for the recorded pIC50 of the following compound: `Cc1c(CN2CCNC2=S)sc2c1c(=O)n(CC(F)(F)F)c(=O)n2C`
7.85

Dear colleague, I am looking for the recorded pIC50 of the following compound: COCCn1c(=O)c2c(C)c(Cn3[nH]ccc3=O)sc2n(CC2CCCO2)c1=O (racemic) [Example 289]
6.74

Dear colleague, I am looking for the recorded pIC50 of the following compound: `Cc1c(CN2CCNC2=S)sc2c1c(=O)n(C(C)C)c(=O)n2C`
7.77

---

tested-target: human adenosine A2b receptor (Homo sapiens (Human), UniProt P29275)
Sequence (P29275 whole entry): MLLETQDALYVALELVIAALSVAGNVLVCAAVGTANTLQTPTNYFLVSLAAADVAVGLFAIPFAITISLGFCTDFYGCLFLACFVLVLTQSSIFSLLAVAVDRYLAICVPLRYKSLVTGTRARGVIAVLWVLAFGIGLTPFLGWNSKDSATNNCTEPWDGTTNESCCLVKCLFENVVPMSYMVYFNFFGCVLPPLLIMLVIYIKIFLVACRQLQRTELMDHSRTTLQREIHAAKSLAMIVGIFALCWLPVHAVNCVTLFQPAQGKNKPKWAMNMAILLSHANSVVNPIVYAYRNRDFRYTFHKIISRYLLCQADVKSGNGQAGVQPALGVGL
assay-comment: Cellular in vitro reporter gene test for A2b receptor activity (CHO-K1, CRE-luciferase, NECA stimulation)
Format: cell-based
experimental-conditions: recombinant CHO-K1 cell line, CRE-luciferase reporter, antagonism of EC50 concentration of NECA; in some cases means of several determinations, rounded to two significant figures; read-out: A2b receptor IC50
observation-type: IC50 (nM)
Dear colleague, please return just the value in nM, with no unit written.

Examples with answers:
>>> measured("Cc1c(CN2CCNC2=NC#N)sc2c1c(=O)n(CC(C)(C)C)c(=O)n2CC1CCCO1 (racemic) [Example 446]")
19
>>> measured("C=C(C)CCn1c(=O)c2c(C)c(CN3CCNC3=O)sc2n(CCOC)c1=O")
2.4
>>> measured("CCn1c(=O)c2c(C)c(CN3CCNC3=S)sc2n(CC2CCCO2)c1=O (racemic) [Example 35]")
6.3

Dear colleague, I am looking for the recorded IC50 of the following compound: COC(=O)N=C1NCCN1Cc1sc2c(c1C)c(=O)n(CC(F)(F)F)c(=O)n2CC1CCCO1 (single isomer, unassigned) [Example 468]
6.1

Dear colleague, I am looking for the recorded IC50 of the following compound: CCn1c(=O)c2c(C)c(CN3CCNC3=S)sc2n(CC2CCCO2)c1=O (single isomer, unassigned) [Example 139]
2.8

Dear colleague, I am looking for the recorded IC50 of the following compound: `CCn1c(=O)c2c(C)c(CN3CCNC3=NC#N)sc2n(CCC(F)(F)F)c1=O`
13

Dear colleague, I am looking for the recorded IC50 of the following compound: `CCOCCn1c(=O)n(CC(F)F)c(=O)c2c(C)c(CN3CCNC3=S)sc21`
8.5

---

Reported log10(IC50) values for a set of compounds
tested-target: human adenosine A2b receptor (Homo sapiens (Human))
assay-comment: Cellular in vitro reporter gene test for A2b receptor activity (CHO-K1, CRE-luciferase, NECA stimulation)
Type: cell-based
experimental-conditions: recombinant CHO-K1 cell line, CRE-luciferase reporter, antagonism of EC50 concentration of NECA; in some cases means of several determinations, rounded to two significant figures; read-out: A2b receptor IC50
// stored as log10 of IC50 expressed in nM

>>> measured("COCCn1c(=O)n(CC(C)OC)c(=O)c2c(C)c(CN3CCNC3=O)sc21 (single isomer, unassigned) [Example 234]")
0.89

Dear colleague, I am looking for the recorded log10(IC50) of the following compound: `Cc1c(Cn2[nH]ccc2=O)sc2c1c(=O)n(CC(F)(F)F)c(=O)n2CCC(F)(F)F`
1.48

Dear colleague, I am looking for the recorded log10(IC50) of the following compound: `Cc1c(Cn2nc[nH]c2=O)sc2c1c(=O)n(C(C)C)c(=O)n2CCC(F)(F)F`
1.00

Dear colleague, I am looking for the recorded log10(IC50) of the following compound: Cc1c(CN2CCNC2=O)sc2c1c(=O)n(CC(F)(F)F)c(=O)n2CC1CCO1 (racemic) [Example 206]
1.04

Dear colleague, I am looking for the recorded log10(IC50) of the following compound: `CCOCCn1c(=O)n(CC(C)C)c(=O)c2c(C)c(CN3CCNC3=O)sc21`
1.40

Dear colleague, I am looking for the recorded log10(IC50) of the following compound: COCCn1c(=O)c2c(C)c(CN3CCNC(=O)C3=O)sc2n(CC2CCO2)c1=O (racemic) [Example 400]
2.51

Dear colleague, I am looking for the recorded log10(IC50) of the following compound: `C#CCCn1c(=O)c2c(C)c(CN3CCNC3=O)sc2n(CCOC)c1=O`
0.15

Dear colleague, I am looking for the recorded log10(IC50) of the following compound: `CCn1c(=O)c2c(C)c(Cn3[nH]ccc3=O)sc2n(CCOC)c1=O`
0.67

Dear colleague, I am looking for the recorded log10(IC50) of the following compound: COCCn1c(=O)c2c(C)c(CN3CCNC3=NC(=O)OC)sc2n(CC2CCO2)c1=O (single isomer, unassigned) [Example 389]
1.94

Dear colleague, I am looking for the recorded log10(IC50) of the following compound: Cc1c(Cn2[nH]ccc2=O)sc2c1c(=O)n(CC(F)(F)F)c(=O)n2CC1CCCO1 (single isomer, unassigned) [Example 285]
1.96

Dear colleague, I am looking for the recorded log10(IC50) of the following compound: `COCCn1c(=O)n(C(C)C)c(=O)c2c(C)c(CN3CCNC(=O)C3=O)sc21`
2.15

Dear colleague, I am looking for the recorded log10(IC50) of the following compound: `Cc1c(CN2CCN(C(C)C)C2=S)sc2c1c(=O)n(CC(F)(F)F)c(=O)n2C`
2.15

Dear colleague, I am looking for the recorded log10(IC50) of the following compound: `CCn1c(=O)c2c(C)c(CN3CCNC3=O)sc2n(CC(F)(F)F)c1=O`
1.15

Dear colleague, I am looking for the recorded log10(IC50) of the following compound: `COCCn1c(=O)n(CC(F)(F)F)c(=O)c2c(C)c(Cn3nc[nH]c3=O)sc21`
1.76

Dear colleague, I am looking for the recorded log10(IC50) of the following compound: `Cc1c(CN2CCNC2=S)sc2c1c(=O)n(CC(C)C)c(=O)n2CCC(F)(F)F`
0.28

Dear colleague, I am looking for the recorded log10(IC50) of the following compound: Cc1c(Cn2nc[nH]c2=O)sc2c1c(=O)n(C(C)C)c(=O)n2CC1CCCO1 (racemic) [Example 424]
1.94

---

Reported log10 IC50 values for a set of compounds
tested-target: human adenosine A2b receptor (Homo sapiens (Human))
assay-comment: Cellular in vitro reporter gene test for A2b receptor activity (CHO-K1, CRE-luciferase, NECA stimulation)
Assay type: cell-based
experimental-conditions: recombinant CHO-K1 cell line, CRE-luciferase reporter, antagonism of EC50 concentration of NECA; in some cases means of several determinations, rounded to two significant figures; read-out: A2b receptor IC50
// stored as log10 of IC50 expressed in nM

>>> measured("Cc1c(CN2CCNC2=O)sc2c1c(=O)n(CC(F)F)c(=O)n2C")
1.15
>>> measured("Cc1c(CN2CCNC(=O)C2=O)sc2c1c(=O)n(CC(F)(F)F)c(=O)n2CCC(F)(F)F")
0.59
>>> measured("Cc1c(CN2CCNC2=O)sc2c1c(=O)n(CC(C)C)c(=O)n2CCCF")
0.51

Find log10 IC50 (human adenosine A2b receptor (Homo sapiens (Human))) for the entry `CCn1c(=O)c2c(C)c(CN3CCNC3=O)sc2n(CCOC(C)C)c1=O`
1.72

Find log10 IC50 (human adenosine A2b receptor (Homo sapiens (Human))) for the entry `Cc1c(Cn2cc[nH]c2=O)sc2c1c(=O)n(CC(F)(F)F)c(=O)n2CCC(F)(F)F`
0.75

Find log10 IC50 (human adenosine A2b receptor (Homo sapiens (Human))) for the entry CCn1c(=O)c2c(C)c(CN3CCNC3=NC#N)sc2n(CC2CCO2)c1=O (single isomer, unassigned) [Example 257]
0.85

Find log10 IC50 (human adenosine A2b receptor (Homo sapiens (Human))) for the entry `CCn1c(=O)c2c(C)c(Cn3cc[nH]c3=O)sc2n(CCC(F)(F)F)c1=O`
0.08

Find log10 IC50 (human adenosine A2b receptor (Homo sapiens (Human))) for the entry `CCn1c(=O)c2c(C)c(Cn3cn[nH]c3=O)sc2n(CCC(F)(F)F)c1=O`
1.38

Find log10 IC50 (human adenosine A2b receptor (Homo sapiens (Human))) for the entry `CCn1c(=O)c2c(C)c(CN3CCNC3=O)sc2n(CCOC2CCCC2)c1=O`
2.15

Find log10 IC50 (human adenosine A2b receptor (Homo sapiens (Human))) for the entry COCCn1c(=O)c2c(C)c(CN3CCNC3=NC(=O)OC)sc2n(CC2CCO2)c1=O (racemic) [Example 387]
1.98

Find log10 IC50 (human adenosine A2b receptor (Homo sapiens (Human))) for the entry `COCCn1c(=O)n(CCc2ccccc2)c(=O)c2c(C)c(CN3CCNC3=O)sc21`
0.18

Find log10 IC50 (human adenosine A2b receptor (Homo sapiens (Human))) for the entry COC(=O)N=C1NCCN1Cc1sc2c(c1C)c(=O)n(C(C)C)c(=O)n2CC1CCO1 (single isomer, unassigned) [Example 457]
0.85

Find log10 IC50 (human adenosine A2b receptor (Homo sapiens (Human))) for the entry `Cc1c(Cn2cc[nH]c2=O)sc2c1c(=O)n(CC(C)(C)C)c(=O)n2CCC(F)(F)F`
0.70

Find log10 IC50 (human adenosine A2b receptor (Homo sapiens (Human))) for the entry `COCCn1c(=O)n(CCC(F)(F)F)c(=O)c2c(C)c(CN3CCNC3=O)sc21`
2.11

Find log10 IC50 (human adenosine A2b receptor (Homo sapiens (Human))) for the entry `Cc1c(CN2CCNC2=O)sc2c1c(=O)n(C(C)C)c(=O)n2CC1COC1`
1.23
